Values were extracted from PubChem BioAssay (Tox21).

test: qHTS assay to identify aromatase inhibitors - cell viability counter screen (AID 743084); details: MCF-7 aro ERE viability, CellTiter-Fluor, 24 h; series mostly up to 70.3 µM;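 note: cells stimulated with testosterone during compound exposure; nearly all actives have a fitted effect of over 55% in size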
Results filed as inconclusive are left out. Calls of active or inactive are those of the source. Calls come from the whole dose curve; as a rule, active = well fitted cell-killing curve with a large enough effect in the repeat runs; inconclusive = weak or mixed curves, or effect the other way; inactive = no such curve, though single readings can be large or run the other way.
Form entry, call: pick from active, inactive

Here are 2 compounds together with their reported answers.
>>> class_assignment("N[C@@H](Cc1cnc[nH]1)C(=O)O")
"inactive"
>>> class_assignment("CCCCCN=C(N)N/N=C/c1c[nH]c2ccc(OC)cc12")
"inactive"

IN: Which outcome was assigned to Nc1c(CC(=O)O)cccc1C(=O)c1ccccc1 in this test?
OUT: inactive

IN: # outcome recorded in this test, key = CCN1\C(=C/C=C/C=C/c2sc3ccccc3[n+]2CC)Sc2ccccc21
OUT: active

IN: I'd appreciate the recorded outcome for CC[C@@]1([C@@H]2O[C@@H]([C@H]3O[C@@](O)(CO)[C@H](C)C[C@@H]3C)C[C@@H]2C)CC[C@H]([C@]2(C)CC[C@]3(C[C@H](O)[C@@H](C)[C@@H]([C@@H](C)[C@@H](OC)[C@H](C)C(=O)O)O3)O2)O1 (stereo in doubt) from this test.
OUT: inactive

IN: What did the test return for C[C@]12O[C@H](C[C@]1(O)CO)n1c3ccccc3c3c4c(c5c6ccccc6n2c5c31)CNC4=O ?
OUT: active

IN: Tell me the recorded outcome of this test for C=C1[C@H](CO)[C@@H](O)C[C@@H]1n1cnc2c(=O)[nH]c(N)nc21 .
OUT: inactive

IN: Hi, sorry to bother you, what did the test record for O=C(O)c1cc(O)c2c(c1)[C@H]([C@H]1c3cc(C(=O)O)cc(O)c3C(=O)c3c(O[C@@H]4O[C@H](CO)[C@@H](O)[C@H](O)[C@H]4O)cccc31)c1cccc(O[C@@H]3O[C@H](CO)[C@@H](O)[C@H](O)[C@H]3O)c1C2=O ?
OUT: inactive

###

experiment: qHTS assay to identify small molecule agonists of H2AX (AID 1224845); conditions: CHO-K1 phospho-H2AX Ser139 HTRF, 3 h; series mostly up to 154 µM
Inconclusive results are not listed. Activity calls are given as the source filed them. Calls follow the shape of the dose curve; as a rule, active = well fitted activation curve with a large enough effect in the signal ratio in the repeat runs (not every such curve was filed as active); inconclusive = weak or mixed curves; inactive = flat fitted curve, though single readings scatter; the % refers to the signal ratio.
Write down the outcome that applies. Available outcomes: active, inactive

Field: example entries. Status: answers known.
>>> class_assignment("CCCCCCCC/C=C\\CCCCCCCC(=O)N(CCO)CCO")
"inactive"
>>> class_assignment("CC(C)C(=O)C(C)C")
"inactive"
>>> class_assignment("CCN(CC)c1ccc(C=O)c(O)c1")
"inactive"
>>> class_assignment("CC(C)c1ccc2sc3ccccc3c(=O)c2c1")
"inactive"
>>> class_assignment("Cc1cc(F)ccc1-c1cc(N2CC[C@@H](O)[C@H]2CO)ncc1N(C)C(=O)C(C)(C)c1cc(C(F)(F)F)cc(C(F)(F)F)c1")
"active"

Shifting focus to the molecule that follows.
IN: How did this test come out for c1ccc(-c2nc3ccccc3[nH]2)cc1 ?
OUT: inactive

###

activity change, positive = activation overview
test: qHTS assay to identify small molecule agonists of the estrogen related receptor (ERR) signaling pathway from Tox21 library (AID 1224849); conditions: ERR reporter cell line, ONE-Glo luciferase, 18 h; at 92.4 µM (top of the series) unless noted; note: % is set by controls: 0 for no effect and ±100 for the full control effect; nearly all actives have a fitted effect of over 15% in size
Active and inactive are the calls of the source. Calls follow the shape of the full dose curve.

As a guide, the following entries are already answered.
>>> recorded_value("CCCC(C)C=O (stereo not drawn)")
"4.95% (inactive)"
>>> recorded_value("[Cl][Sc]([Cl])[Cl]")
"0.963% (inactive)"
>>> recorded_value("CN(C[C@@H](CC[N+]12CCC(C3CCCCC3)(CC1)CC2)c1ccc(Cl)c(Cl)c1)C(=O)c1cc(C(F)(F)F)cc(C(F)(F)F)c1")
"-78.4% (inactive)"
>>> recorded_value("CCCCCc1ccc(O)cc1")
"1.58% (inactive)"
>>> recorded_value("CO[Si](OC)(c1ccccc1)c1ccccc1")
"-12.9% (inactive)"
>>> recorded_value("Oc1ccc(Cl)cc1C1CCCC1")
"6.21% (inactive)"

IN: Give the measured activity change, positive = activation of Nc1c(Br)cc([N+](=O)[O-])cc1Br .
OUT: -20.8% (inactive)

IN: Can you share its activity change, positive = activation? I mean this compound: CCN(CC)c1ccc(C=O)c(O)c1
OUT: -16.4% (inactive)
